Biological target: Ubiquitin carboxyl-terminal hydrolase 2 (Homo sapiens) (UniProt O75604)
Sequence (O75604 whole entry, looked up): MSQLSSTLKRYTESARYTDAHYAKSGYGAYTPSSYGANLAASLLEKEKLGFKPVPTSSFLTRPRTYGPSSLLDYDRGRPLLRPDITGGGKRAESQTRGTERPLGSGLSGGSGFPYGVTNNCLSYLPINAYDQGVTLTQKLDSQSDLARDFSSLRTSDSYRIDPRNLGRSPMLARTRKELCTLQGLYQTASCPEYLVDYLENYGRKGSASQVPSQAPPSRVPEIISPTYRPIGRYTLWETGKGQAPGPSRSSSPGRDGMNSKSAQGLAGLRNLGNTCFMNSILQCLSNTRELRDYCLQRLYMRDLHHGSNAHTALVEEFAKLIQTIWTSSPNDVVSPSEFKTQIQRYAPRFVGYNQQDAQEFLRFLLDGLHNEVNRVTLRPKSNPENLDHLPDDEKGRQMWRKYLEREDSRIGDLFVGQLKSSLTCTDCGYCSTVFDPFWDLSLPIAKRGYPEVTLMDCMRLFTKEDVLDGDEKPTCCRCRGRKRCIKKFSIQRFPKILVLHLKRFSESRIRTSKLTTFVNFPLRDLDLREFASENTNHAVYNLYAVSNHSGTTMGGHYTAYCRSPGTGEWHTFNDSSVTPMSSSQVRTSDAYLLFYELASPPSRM
Assay: Confirmation Assay for Inhibitors of Ubiquitin-specific Protease USP2a Using CHOP2 as the Reporter; note: nearly all actives have a fitted effect of over 55% in size
Details: USP2 core, Ub-CHOP2 coupled reporter fluorescence; series mostly up to 38.3 µM
Records with an inconclusive call do not appear. The source made the active and inactive calls. Calls come from the whole dose curve; as a rule, active = well fitted inhibition curve with a large enough effect; inconclusive = small, poorly fitted or top-dose-only effect, or effect the other way; inactive = flat fitted curve, though single readings scatter.
// allowed return values: active, inactive

>  <compound>
Cc1ccc2[nH]c3c(c2c1)CN(C(=O)CN1CCSCC1)CC3

>  <measured.target>
Ubiquitin carboxyl-terminal hydrolase 2 (Homo sapiens) (UniProt O75604)

>  <class>
inactive

$$$$
>  <compound>
Cc1c(NC(=O)C2CCCN2S(=O)(=O)c2ccc(Cl)cc2)c(=O)n(-c2ccccc2)n1C (stereo not drawn)

>  <measured.target>
Ubiquitin carboxyl-terminal hydrolase 2 (Homo sapiens) (UniProt O75604)

>  <class>
inactive

$$$$

QUERY: What classification did `Cc1ccc(Nc2cc(C)nc(NCc3ccccc3)n2)cc1` end up with in this test?
RESULT: inactive

QUERY: What did this assay record as the result for `CCN1C(=O)CSc2ccc(C(=O)NC3CCCCC3)cc21` ?
RESULT: inactive

QUERY: Any idea what this test logged for `CCOC(=O)c1c(C)c(C(=O)O)n(C)c1C` ?
RESULT: inactive

---

Biological target: Ubiquitin carboxyl-terminal hydrolase 2 (Homo sapiens)
Test: Confirmation Assay for Inhibitors of Ubiquitin-specific Protease USP2a Using CHOP2 as the Reporter; note: nearly all actives have a fitted effect of over 55% in size
Details: USP2 core, Ub-CHOP2 coupled reporter fluorescence; series mostly up to 38.3 µM
Records with an inconclusive call do not appear. Activity calls are given as the source filed them. Calls follow the shape of the dose curve; as a rule, active = well fitted inhibition curve with a large enough effect; inconclusive = small, poorly fitted or top-dose-only effect, or effect the other way; inactive = flat fitted curve, though single readings scatter.
Output constraint: value belongs to active, inactive

As a guide, the following entries are already answered.
>  <molecule>
CC(/C=N/NC(=O)c1cc(-c2cccs2)[nH]n1)=C\c1ccccc1

>  <class>
inactive

$$$$
>  <molecule>
COCCn1c(SCC(=O)Nc2cc(C)on2)nnc1-c1ccccc1

>  <class>
inactive

$$$$
>  <molecule>
O=C(COC(=O)c1cccc(S(=O)(=O)N2CCc3ccccc32)c1)NC1CCS(=O)(=O)C1 (stereo unspecified)

>  <class>
inactive

$$$$

Lab note: next molecule to report on.
QUERY: Tell me the recorded outcome of this test for `O=C(COc1ccccc1)N1CCN(C(=O)Cc2ccccc2)CC1` .
RESULT: inactive

---

Biological target: Ubiquitin carboxyl-terminal hydrolase 2 (Homo sapiens) (UniProt O75604)
Test: Confirmation Assay for Inhibitors of Ubiquitin-specific Protease USP2a Using CHOP2 as the Reporter; note: nearly all actives have a fitted effect of over 55% in size
Details: USP2 core, Ub-CHOP2 coupled reporter fluorescence; series mostly up to 38.3 µM
Results filed as inconclusive are left out. The source made the active and inactive calls. Calls come from the whole dose curve; as a rule, active = well fitted inhibition curve with a large enough effect; inconclusive = small, poorly fitted or top-dose-only effect, or effect the other way; inactive = flat fitted curve, though single readings scatter.
Form entry, call: pick from label 1 (active), label 0 (inactive)

Example results:
>  <compound>
Cn1c(=O)[nH]c(=O)c2c1nc(NCc1ccccc1)n2CCCc1ccccc1

>  <class>
label 0

$$$$
>  <compound>
O=C(Nc1ccc(N2CCCC2)cc1)c1ccc(Br)cc1

>  <class>
label 1

$$$$
>  <compound>
COc1ccccc1C1NC(c2ccccc2OC)C(C)C(=O)C1C (stereo unspecified)

>  <class>
label 0

$$$$
>  <compound>
O=C(CN1CCC(O)CC1)N1c2ccccc2C=Cc2ccccc21

>  <class>
label 0

$$$$
>  <compound>
COc1ccc(NC(=O)C2CC(=O)OC2c2ccccc2)cc1 (stereo unspecified)

>  <class>
label 0

$$$$

QUERY: Give the logged outcome of this assay for the following compound: `O=C(c1ccccc1N(Cc1ccccc1)S(=O)(=O)c1ccccc1)N1CCOCC1`
RESULT: label 0

QUERY: What did this assay record as the result for `COc1ccc(-c2nc(Cn3c(SCc4ccc(F)cc4)nc4ccncc43)c(C)o2)cc1OC` ?
RESULT: label 0

---

Biological target: Ubiquitin carboxyl-terminal hydrolase 2 (Homo sapiens)
Experiment: Confirmation Assay for Inhibitors of Ubiquitin-specific Protease USP2a Using CHOP2 as the Reporter; note: nearly all actives have a fitted effect of over 55% in size
Settings: USP2 core, Ub-CHOP2 coupled reporter fluorescence; series mostly up to 38.3 µM
Results filed as inconclusive are left out. Activity calls are given as the source filed them. The call rests on the fitted dose curve; in most records, active means well fitted inhibition curve with a large enough effect; inconclusive means small, poorly fitted or top-dose-only effect, or effect the other way; inactive means flat fitted curve, though single readings scatter.
readout.type: outcome

>  <molecule>
Cc1ccc(NC(=O)CSc2nnc(COc3ccc(C#N)cc3)n2-c2ccccc2)cc1C

>  <outcome>
inactive

$$$$
>  <molecule>
O=C(NC1CCCCC1)C(c1ccco1)N(Cc1ccco1)C(=O)c1ccco1 (stereo unspecified)

>  <outcome>
inactive

$$$$
>  <molecule>
CC(C)(C)NC(=O)CSc1nc(O)cc(=O)n1-c1ccccc1F

>  <outcome>
inactive

$$$$
>  <molecule>
Cn1c(=O)c(C(=O)Nc2ncccc2O)c(O)c2ccccc21

>  <outcome>
inactive

$$$$
>  <molecule>
COC(=O)N/N=C\c1cc(Br)ccc1OCc1ccccc1

>  <outcome>
inactive

$$$$

The molecule `Nc1ccc2nc(-c3cccc(-c4nc5ccc(N)cc5[nH]4)c3)[nH]c2c1` showed outcome equal to inactive

---

Target: Ubiquitin carboxyl-terminal hydrolase 2 (Homo sapiens) (UniProt O75604)
Assay: Confirmation Assay for Inhibitors of Ubiquitin-specific Protease USP2a Using CHOP2 as the Reporter; note: nearly all actives have a fitted effect of over 55% in size
Conditions: USP2 core, Ub-CHOP2 coupled reporter fluorescence; series mostly up to 38.3 µM
Inconclusive results are not listed. The source made the active and inactive calls. The call rests on the fitted dose curve; in most records, active means well fitted inhibition curve with a large enough effect; inconclusive means small, poorly fitted or top-dose-only effect, or effect the other way; inactive means flat fitted curve, though single readings scatter.
Allowed answers: 1 for active, -1 for inactive

>  <compound>
O=C(CCNc1cccc(Cl)c1)c1ccco1

>  <measured.target>
Ubiquitin carboxyl-terminal hydrolase 2 (Homo sapiens) (UniProt O75604)

>  <class>
-1

$$$$
>  <compound>
Cc1ccc2nc(NCCCNC(=O)c3cnccn3)c(C#N)cc2c1

>  <measured.target>
Ubiquitin carboxyl-terminal hydrolase 2 (Homo sapiens) (UniProt O75604)

>  <class>
-1

$$$$
>  <compound>
CC(OC(=O)c1nsc(Cl)c1Cl)C(=O)NCc1ccco1 (stereo unspecified)

>  <measured.target>
Ubiquitin carboxyl-terminal hydrolase 2 (Homo sapiens) (UniProt O75604)

>  <class>
-1

$$$$
>  <compound>
CN(C)c1cccc(C(=O)NNC(=O)C23CC4CC(CC(C4)C2)C3)c1

>  <measured.target>
Ubiquitin carboxyl-terminal hydrolase 2 (Homo sapiens) (UniProt O75604)

>  <class>
-1

$$$$
>  <compound>
O=C(C[n+]1cccc(C(=O)N/N=C/c2ccc(Br)cc2)c1)c1ccccc1

>  <measured.target>
Ubiquitin carboxyl-terminal hydrolase 2 (Homo sapiens) (UniProt O75604)

>  <class>
-1

$$$$

QUERY: Outcome logged for `Cc1ccc(N(CC(=O)Nc2ccc(S(=O)(=O)N3CCOCC3)cc2)S(C)(=O)=O)cc1C` in this assay:
RESULT: -1

QUERY: Hi, sorry to bother you, what did the test record for `O=C(COc1ccccc1)NCc1nnc(SCC(=O)Nc2nccs2)n1-c1ccccc1` ?
RESULT: -1

QUERY: Lab log entry: CC(C)C(C(=O)O)N1C(=O)/C(=C/C=C/c2ccco2)SC1=S (stereo unspecified) — outcome as called in the assay?
RESULT: 1

---

Biological target: Ubiquitin carboxyl-terminal hydrolase 2 (Homo sapiens) (UniProt O75604)
Experiment: Confirmation Assay for Inhibitors of Ubiquitin-specific Protease USP2a Using CHOP2 as the Reporter; note: nearly all actives have a fitted effect of over 55% in size
Conditions: USP2 core, Ub-CHOP2 coupled reporter fluorescence; series mostly up to 38.3 µM
Inconclusive results are not listed. Active and inactive are the calls of the source. Calls come from the whole dose curve; as a rule, active = well fitted inhibition curve with a large enough effect; inconclusive = small, poorly fitted or top-dose-only effect, or effect the other way; inactive = flat fitted curve, though single readings scatter.
Hello, when you answer, please use one of the following outcomes: active, inactive

A selection of reference data follows.
>  <compound>
O=C1Nc2ccccc2SC(c2ccccc2)C1O (stereo not given)

>  <class>
active

$$$$
>  <compound>
CC(C)n1c(/C=C/[C@H](O)C[C@H](O)CC(=O)O)c(-c2ccc(F)cc2)c2ccccc21

>  <class>
inactive

$$$$
>  <compound>
COc1ccc(-n2c(=S)[nH]c3cc(C(=O)Nc4cc(OC)c(OC)c(OC)c4)ccc3c2=O)c(OC)c1

>  <class>
inactive

$$$$
>  <compound>
COCCn1nnnc1CN(CCc1ccccc1)Cc1cc2ccc(C)cc2[nH]c1=O

>  <class>
inactive

$$$$
>  <compound>
Cc1cc(C(=O)CSc2nnc(Nc3ccccc3F)s2)c(C)n1CC1CCCO1 (stereo not given)

>  <class>
inactive

$$$$

QUERY: Given `CCOc1ccc(S(=O)(=O)N(CC(=O)O)c2ccccc2)cc1` , state the outcome it received in this test.
RESULT: inactive

QUERY: GET /call?item= `CCOc1ccc(CCn2c(-c3ccco3)nc3ccccc3c2=O)cc1OCC` returns the recorded outcome of this test.
RESULT: inactive

QUERY: What call does the record list for `Cc1ccc(Nc2nc(N)nc(CN3CCN(C(=O)c4ccco4)CC3)n2)cc1Cl` ?
RESULT: inactive

QUERY: State the result this test recorded for `Cc1cc(NC(=O)COC(=O)CCCOc2ccc(Cl)cc2C)no1` .
RESULT: inactive

QUERY: Name the outcome recorded for `CCCc1cc(=O)oc2cc(C)c(CN3CCCC3)c(O)c12` in the assay.
RESULT: inactive

---

Target: Ubiquitin carboxyl-terminal hydrolase 2 (Homo sapiens) (UniProt O75604)
Test: Confirmation Assay for Inhibitors of Ubiquitin-specific Protease USP2a Using CHOP2 as the Reporter; note: nearly all actives have a fitted effect of over 55% in size
Conditions: USP2 core, Ub-CHOP2 coupled reporter fluorescence; series mostly up to 38.3 µM
Records with an inconclusive call do not appear. Active and inactive are the calls of the source. The call rests on the fitted dose curve; in most records, active means well fitted inhibition curve with a large enough effect; inconclusive means small, poorly fitted or top-dose-only effect, or effect the other way; inactive means flat fitted curve, though single readings scatter.
Thanks in advance; please answer with one of these: 1 (yes) = active, 0 (no) = inactive

>  <compound>
Cn1cccc1CC(=O)N/N=C/C=C/c1ccco1

>  <class>
0 (no)

$$$$
>  <compound>
O=C(c1ccccc1)N1CCN(C(=O)N2CCCCC2)CC1

>  <class>
0 (no)

$$$$
>  <compound>
Cc1ccccc1OCc1nc2ccccc2c(=O)n1N

>  <class>
0 (no)

$$$$

QUERY: In this assay, the call recorded for `CC(C)Oc1ccc(C(=O)Nc2ccc(N3CCCC3)cc2)cc1` was what?
RESULT: 0 (no)

QUERY: Please state the recorded outcome for this compound: `CN(C)CCOCCP(=O)(c1ccccc1)c1ccccc1`
RESULT: 0 (no)

QUERY: Query: recorded result category for `CCOC(=O)CCCNC(=O)COC(=O)c1cccc(C)c1O` in this test
RESULT: 0 (no)

QUERY: Just curious, what result did CC1CCCCC1NC(=O)CSCC(=O)O (stereo not given) get here?
RESULT: 0 (no)

QUERY: What is the recorded call for this compound in the test? `COc1ccc(C(=O)Nc2ccc(N3CCCC3)cc2)cc1OC`
RESULT: 0 (no)

QUERY: Please let me know the test result on file for COc1ccccc1N1C(=O)CC(N2CCc3ccccc32)C1=O (stereo not given) .
RESULT: 0 (no)

QUERY: What is the recorded call for this compound in the test? `N#Cc1cccc(C(=O)N(CCc2ccccc2)Cc2cccs2)c1`
RESULT: 0 (no)

QUERY: Please share the test call associated with `CNc1cccccc1=S` .
RESULT: 0 (no)
